B1: PHTF1 (parent)
chain: RVKLISNKGTETDNDPSCVHPIIK

Variants of: B1
Test: protein stability index of a GFP-peptide fusion (GPS, HEK-293T) (PSI 1-6); higher = more stable;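 also: lentivirally expressed fusions sorted by FACS into six bins by GFP to DsRed ratio, PSI derived from sequencing read proportions per bin multiplied by bin number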
Conditions: c terminus: a fixed tail appended
Here, each record is paired with measured protein stability index data.
Readout Kind: protein stability index

# Mut, Reported Result
rows = [
    ("H20C", 3.94),
    ("P21S", 3.89),
    ("T10P", 4.29),
    ("R1K", 4.05),
    ("K3H", 3.83),
    ("K8F", 3.56),
    ("P21R", 4),
    ("N14V", 4.26),
]
